target: B1 bradykinin receptor (Homo sapiens, UniProt P46663); assay: Antagonistic activity at human bradykinin B1 receptor expressed in CHO cells assessed as effect on DAK-mediated calcium mobilization
Sequence (P46663 whole entry): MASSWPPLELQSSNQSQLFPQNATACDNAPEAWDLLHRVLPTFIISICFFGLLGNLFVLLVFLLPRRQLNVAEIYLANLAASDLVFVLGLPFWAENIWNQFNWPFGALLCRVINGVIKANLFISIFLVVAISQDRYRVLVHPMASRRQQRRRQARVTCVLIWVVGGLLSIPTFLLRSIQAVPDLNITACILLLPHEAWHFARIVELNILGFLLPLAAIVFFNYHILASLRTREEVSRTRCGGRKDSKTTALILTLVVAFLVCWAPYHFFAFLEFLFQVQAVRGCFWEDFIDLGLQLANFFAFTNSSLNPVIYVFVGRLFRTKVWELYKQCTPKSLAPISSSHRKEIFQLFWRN
measurement.type: pIC50
Note on units: pIC50 is unitless, being -log10 of a concentration expressed in mol/L.

Request: Please supply the value of reported pIC50 for the item CN1c2cc(CN3CCCCC3)ccc2[C@H](NC(=O)C[C@@H](NS(=O)(=O)c2ccc3ccccc3c2)c2ccccc2)CS1(=O)=O
Response: 7.85

Request: Please supply the value of reported pIC50 for the item O=C(C[C@@H](NS(=O)(=O)c1ccc2ccccc2c1)c1ccccc1)N[C@@H]1CCc2cc(CN3CCCCC3)ccc21
Response: 8.25

Request: Please supply the value of reported pIC50 for the item O=C(C[C@@H](NS(=O)(=O)c1ccc2ccccc2c1)c1ccccc1)N[C@H]1CCc2cc(CN3CCCCC3)ccc21
Response: 6.74

Request: Please supply the value of reported pIC50 for the item O=C(C[C@@H](NS(=O)(=O)c1ccc2ccccc2c1)c1ccccc1)NCCc1ccc(CN2CCCCC2)cc1
Response: 6.27

Request: Please supply the value of reported pIC50 for the item C[C@@H](NC(=O)C[C@@H](NS(=O)(=O)c1ccc2ccccc2c1)c1ccccc1)c1ccc(CN2CCCCC2)cc1
Response: 6.52

Request: Please supply the value of reported pIC50 for the item O=C(C[C@@H](NS(=O)(=O)c1ccc2ccccc2c1)c1ccccc1)NCc1ccc(CN2CCCCC2)cc1
Response: 6.35

Request: Please supply the value of reported pIC50 for the item CN1c2cc(CN3CCCCC3)ccc2[C@@H](NC(=O)C[C@@H](NS(=O)(=O)c2ccc3ccccc3c2)c2ccccc2)CS1(=O)=O
Response: 7.97

Request: Please supply the value of reported pIC50 for the item O=C(CC(NS(=O)(=O)c1ccc2ccccc2c1)c1ccccc1)NCc1ccc(CN2CCCCC2)cc1 (racemic)
Response: 6.44

Request: Please supply the value of reported pIC50 for the item O=C(C[C@@H](NS(=O)(=O)c1ccc2ccccc2c1)c1ccccc1)NC1CCc2cc(CCN3CCCCC3)ccc2C1 (stereo not given in full)
Response: 6.49

###

assay: Half life in rat at 1 mg/kg, iv; assay type: ADME, organism-based; design: dose 1 mg/kg, route intravenous; details: in vivo
measurement.type: half-life (h)
Please respond with the number in h and leave the unit unwritten.

Request: Please supply the value of reported half-life for the item O=C(C[C@@H](NS(=O)(=O)c1ccc2ccccc2c1)c1ccccc1)N[C@@H]1CCOc2cc(CN3CCCCC3)ccc21
Response: 1.4

###

experiment: Volume of distribution in rat at 1 mg/kg, iv; type: ADME, organism-based; parameters: dose 1 mg/kg, route intravenous; conditions: in vivo, read-out: Vss
measurement.type: Vd (L/kg)
Please respond with the number in L/kg and leave the unit unwritten.

Request: Please supply the value of reported Vd for the item O=C(C[C@@H](NS(=O)(=O)c1ccc2ccccc2c1)c1ccccc1)N[C@@H]1CCOc2cc(CN3CCCCC3)ccc21
Response: 7.43

###

assay: Half life in rat at 10 mg/kg, sc; assay type: ADME, organism-based; parameters: dose 10 mg/kg, route subcutaneous; conditions: in vivo
measurement.type: half-life
Answer with the number, then the unit.

Request: Please supply the value of reported half-life for the item O=C(C[C@@H](NS(=O)(=O)c1ccc2ccccc2c1)c1ccccc1)N[C@@H]1CCOc2cc(CN3CCCCC3)ccc21
Response: 2.2 h
